- Test system: HCT-116 colon
- ASSAY NAME: NCI tumour cell line growth inhibition, 48 h
ENDPOINT: TGI

Recorded results for 2 compounds are shown here.
COMPOUND: S=C1CSc2c(cnc3ccccc23)N1
TGI: > 100 µM

COMPOUND: COC1(OC)c2ccccc2C2(O)c3ccccc3C(=O)C12 (stereo not drawn)
TGI: > 100 µM

Now consider a different compound.
Prompt: Requested read-out: TGI. Entry: `Cc1ccc(C2(c3ccc(C)c(O)c3C)CCN(C)CC2)c(C)c1O`
Response: > 100 µM

----------
- System: SNB-19 CNS
- ASSAY NAME: NCI tumour cell line growth inhibition, 48 h
ENDPOINT: TGI

Recorded results for 5 compounds are shown here.
COMPOUND: C=C1CO[C@@H]2C[C@@H]1CCC1(C)OC1CC/C(C)=C/CC[C@@]2(C)O (some centres undefined)
SYSTEM UNDER TEST: SNB-19 CNS
TGI: > 100 µM

COMPOUND: N#Cc1ccc2oc3ccc(C#N)cc3c(=O)c2c1
SYSTEM UNDER TEST: SNB-19 CNS
TGI: 64.8 µM

COMPOUND: O=C(O)C(CO)NC(=O)C1C(C(=O)O)C(c2ccccc2[N+](=O)[O-])C=C(c2ccco2)N1c1ccncc1 (centres undefined)
SYSTEM UNDER TEST: SNB-19 CNS
TGI: 24.5 µM

COMPOUND: CCOC(=O)c1cnc2c(cnn2CC)c1NN=C(C)C
SYSTEM UNDER TEST: SNB-19 CNS
TGI: > 100 µM

COMPOUND: CN1CCN(c2c(O)c3c(c(O)c2Cl)C(=O)C=CC3=O)CC1
SYSTEM UNDER TEST: SNB-19 CNS
TGI: 6.32 µM

Prompt: Form: Entry = `CC(C)(Oc1ccc(C(=O)c2ccc(Cl)cc2)cc1Cl)C(=O)N1CCN(c2ccccc2)CC1` | System = SNB-19 CNS | TGI = ____
Response: > 100 µM

Prompt: Form: Entry = `c1cn[nH]c1` | System = SNB-19 CNS | TGI = ____
Response: > 10 µM

Prompt: Form: Entry = `O=C(O/N=C1/CCCC/C1=C\c1ccccc1)c1ccc(Cl)cc1` | System = SNB-19 CNS | TGI = ____
Response: > 100 µM

Prompt: Form: Entry = `C=CCNC(=S)OCCCCCCCCCC` | System = SNB-19 CNS | TGI = ____
Response: 83.9 µM

----------
Let's look at some compounds and their measured GI50.
- Tested on: DU-145 prostate
- ASSAY NAME: NCI tumour cell line growth inhibition, 48 h

Recorded results for 3 compounds are shown here.
COMPOUND: CC(=O)OC1=C2C(CC3C4CC=C5CC(OC(C)=O)CCC5(C)C4CCC23C)C2C(=O)N(Cc3ccccc3)C(=O)C2C1 (centres undefined)
ENDPOINT: GI50
RESULT: 32.8 µM
//
COMPOUND: O=C(Nc1ccccc1F)c1ccc(NC2=C(Cl)C(=O)N(Cc3ccccc3)C2=O)cc1
ENDPOINT: GI50
RESULT: 2.11 µM
//
COMPOUND: COC(=O)[C@H](Cc1ccccc1)NC(=O)[C@@H](OC)[C@@H]1Cc2cc3cc(OC4CC(OC5CC(O)C(O)C(C)O5)C(O)C(C)O4)c(C)c(O)c3c(O)c2C(=O)[C@H]1OC1CC(OC2CC(OC3CC(C)(O)C(O)C(C)O3)C(O)C(C)O2)C(O)C(C)O1 (some centres undefined)
ENDPOINT: GI50
RESULT: 0.0286 µM

Now consider a different compound.
Prompt: Form: Entry = CC12CCC(O)CC1CCC1C2CCC2(C)C(C3=CC(=O)OC3)CCC12 (centres undefined) | System = DU-145 prostate | GI50 = ____
Response: 42.4 µM
